target: STING AQ: His-TVMV-S-hSTING(155-341)-G230A-R293Q (Homo sapiens, UniProt Q86WV6, G230A/H232R/R293Q); construct: STING AQ: His-TVMV-S-hSTING(155-341)-G230A-R293Q; test: STING HTRF binding assay, STING AQ; conditions: 20 nM His-tagged STING cytoplasmic domain AQ, 40 nM fluorescein-labeled cGAMP analog probe, one hour; read-out: HTRF Binding Assays IC50 (μM) AQ
Sequence (Q86WV6 with tags, fused parts or gaps G230A/H232R/R293Q): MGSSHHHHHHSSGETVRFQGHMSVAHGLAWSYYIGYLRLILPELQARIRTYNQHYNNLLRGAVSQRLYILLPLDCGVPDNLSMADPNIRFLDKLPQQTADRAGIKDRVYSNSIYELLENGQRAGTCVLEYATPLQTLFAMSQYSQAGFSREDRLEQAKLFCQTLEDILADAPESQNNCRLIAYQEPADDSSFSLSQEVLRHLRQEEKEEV
// IC50 lookup, one value per entry
State the value with its unit after it.

Below, each entry is followed by its recorded IC50 result.
# MOLECULE, ENDPOINT_VALUE
measured = [
    ("C=C1[C@H]2OP(=O)(S)OC[C@H]3O[C@@H](n4cnc5c(N)ncnc54)[C@H](F)[C@@H]3OP(=O)(S)OC[C@H]1O[C@H]2c1ccnc(C(N)=O)c1 (single isomer, unassigned) [Example 3-2]", "1.64 µM"),
    ("C=C1[C@H]2OP(=O)(S)OC[C@H]3O[C@@H](n4cnc5c(N)ncnc54)[C@H](F)[C@@H]3OP(=O)(S)OC[C@H]1O[C@H]2c1ccnc(C(N)=O)c1 (single isomer, unassigned) [Example 3-4]", "0.09 µM"),
    ("CNC(=O)c1cc([C@@H]2O[C@@H]3COP(=O)(S)O[C@H]4[C@@H](F)[C@H](n5cnc6c(N)ncnc65)O[C@@H]4COP(=O)(S)O[C@@H]2[C@@H]3O)ccn1 (single isomer, unassigned) [Example 2-1]", "0.6 µM"),
]

Now, please, on to the next molecule.
Prompt: Give recorded IC50. NC(=O)c1cc([C@@H]2O[C@@H]3COP(=O)(S)O[C@H]4[C@@H](F)[C@H](n5cnc6c(N)ncnc65)O[C@@H]4COP(=O)(S)O[C@@H]2[C@@H]3F)ccn1 (single isomer, unassigned) [Example 4-1]
Response: 0.05 µM

---

Molecular target: STING WT: His-TVMV-S-hSTING(155-341)-H232R (Homo sapiens, UniProt Q86WV6, H232R)
Construct: STING WT: His-TVMV-S-hSTING(155-341)-H232R
Sequence (Q86WV6 with tags, fused parts or gaps H232R): as the sequence (Q86WV6 with tags, fused parts or gaps G230A/H232R/R293Q) above, with A99G, Q162R counted along it
Test: STING HTRF binding assay, STING WT
Details: 20 nM His-tagged STING cytoplasmic domain WT, 200 nM fluorescein-labeled cGAMP analog probe, one hour; read-out: HTRF Binding Assays IC50 (μM) WT
Protocol: A time resolved FRET-based competition binding assay was used to assess test article binding to STING WT and STING AQ. […] Fluorescence at 495 nm and 520 nm was measured using an EnVision microplate reader to quantify FRET between Tb-labeled anti-His antibody and fluorescein-labeled probe. […] Percent inhibition was determined for test compounds at 11 concentrations. […]
Binary call on IC50 with cut-off 0.8 µM: strictly below means 1 (yes), and equality or higher means 0 (no).

# COMPOUND, SYSTEM_TESTED, LABEL_VALUE
data = [
    ("CNC(=O)c1cc([C@@H]2O[C@@H]3COP(=O)(S)O[C@H]4[C@@H](F)[C@H](n5cnc6c(N)ncnc65)O[C@@H]4COP(=O)(S)O[C@@H]2[C@@H]3O)ccn1 (single isomer, unassigned) [Example 2-1]", "STING WT: His-TVMV-S-hSTING(155-341)-H232R (Homo sapiens, UniProt Q86WV6, H232R)", "0 (no)"),
    ("NC(=O)c1cc([C@@H]2O[C@@H]3COP(=O)(S)O[C@H]4[C@@H](F)[C@H](n5cnc6c(N)ncnc65)O[C@@H]4COP(=O)(S)O[C@@H]2[C@@H]3F)ccn1 (single isomer, unassigned) [Example 4-1]", "STING WT: His-TVMV-S-hSTING(155-341)-H232R (Homo sapiens, UniProt Q86WV6, H232R)", "1 (yes)"),
    ("NC(=O)c1cc([C@@H]2O[C@@H]3COP(=O)(S)O[C@H]4[C@@H](F)[C@H](n5cnc6c5ncn5ccnc65)O[C@@H]4COP(=O)(S)O[C@@H]2[C@@H]3O)ccn1 (single isomer, unassigned)", "STING WT: His-TVMV-S-hSTING(155-341)-H232R (Homo sapiens, UniProt Q86WV6, H232R)", "0 (no)"),
    ("NC(=O)c1cc([C@@H]2O[C@@H]3COP(=O)(S)O[C@H]4[C@@H](F)[C@H](n5cnc6c(N)ncnc65)O[C@@H]4COP(=O)(S)O[C@@H]2[C@@H]3F)ccn1 (single isomer, unassigned) [Example 4-2]", "STING WT: His-TVMV-S-hSTING(155-341)-H232R (Homo sapiens, UniProt Q86WV6, H232R)", "1 (yes)"),
]

Please find the next compound below.
Prompt: Here's an entry: C=C1[C@H]2OP(=O)(S)OC[C@H]3O[C@@H](n4cnc5c(N)ncnc54)[C@H](F)[C@@H]3OP(=O)(S)OC[C@H]1O[C@H]2c1ccnc(C(N)=O)c1 (single isomer, unassigned) [Example 3-2] . Is its IC50 below 0.8 µM?
Response: 0 (no)

Data origin, for the record: patent US11945834B2
